Please provide measured solubility at 1 h for the entries that follow.
# protocol: Solubility measurements (RP-HPLC)
# Type: physicochemical
# test.context: HEPES buffer, aqueous buffer, kinetic from dmso stock, dissolved at 10 µM, room temperature, read-out: solubility in HEPES buffer

-- ask Please look at this compound and report its solubility at 1 h: CN1C(=O)N(C)C2=NNC=NC2(O)C1=O (centres unmarked) [GPN355]
-- reply > 10 µM

-- ask Please look at this compound and report its solubility at 1 h: O=C(OCC(O)CO)c1ccccc1O (centres unmarked) [GPN136, 2,3-dihydroxypropyl 2-hydroxybenzoate]
-- reply > 10 µM

-- ask Please look at this compound and report its solubility at 1 h: CC(C)=CCn1cnc2c1c(=O)n(C)c(=O)n2C [GPN279]
-- reply > 10 µM

-- ask Please look at this compound and report its solubility at 1 h: COc1ccc([C@@H](C)C(=O)c2ccc(O)cc2O)cc1 [GPN025]
-- reply > 10 µM

-- ask Please look at this compound and report its solubility at 1 h: COc1cc(C2=N/C(=C\c3ccccc3)C(=O)O2)cc(OC)c1OC [GPN251]
-- reply 0.7 µM

Data credit: paper PMC4595804
